Entries and their measured IC50 follow.
Biological target: EGFR L858R (Homo sapiens, UniProt P00533, L858R)
Construct: purchased SignalChem E10-122BG
Sequence (P00533 25-1210 L858R): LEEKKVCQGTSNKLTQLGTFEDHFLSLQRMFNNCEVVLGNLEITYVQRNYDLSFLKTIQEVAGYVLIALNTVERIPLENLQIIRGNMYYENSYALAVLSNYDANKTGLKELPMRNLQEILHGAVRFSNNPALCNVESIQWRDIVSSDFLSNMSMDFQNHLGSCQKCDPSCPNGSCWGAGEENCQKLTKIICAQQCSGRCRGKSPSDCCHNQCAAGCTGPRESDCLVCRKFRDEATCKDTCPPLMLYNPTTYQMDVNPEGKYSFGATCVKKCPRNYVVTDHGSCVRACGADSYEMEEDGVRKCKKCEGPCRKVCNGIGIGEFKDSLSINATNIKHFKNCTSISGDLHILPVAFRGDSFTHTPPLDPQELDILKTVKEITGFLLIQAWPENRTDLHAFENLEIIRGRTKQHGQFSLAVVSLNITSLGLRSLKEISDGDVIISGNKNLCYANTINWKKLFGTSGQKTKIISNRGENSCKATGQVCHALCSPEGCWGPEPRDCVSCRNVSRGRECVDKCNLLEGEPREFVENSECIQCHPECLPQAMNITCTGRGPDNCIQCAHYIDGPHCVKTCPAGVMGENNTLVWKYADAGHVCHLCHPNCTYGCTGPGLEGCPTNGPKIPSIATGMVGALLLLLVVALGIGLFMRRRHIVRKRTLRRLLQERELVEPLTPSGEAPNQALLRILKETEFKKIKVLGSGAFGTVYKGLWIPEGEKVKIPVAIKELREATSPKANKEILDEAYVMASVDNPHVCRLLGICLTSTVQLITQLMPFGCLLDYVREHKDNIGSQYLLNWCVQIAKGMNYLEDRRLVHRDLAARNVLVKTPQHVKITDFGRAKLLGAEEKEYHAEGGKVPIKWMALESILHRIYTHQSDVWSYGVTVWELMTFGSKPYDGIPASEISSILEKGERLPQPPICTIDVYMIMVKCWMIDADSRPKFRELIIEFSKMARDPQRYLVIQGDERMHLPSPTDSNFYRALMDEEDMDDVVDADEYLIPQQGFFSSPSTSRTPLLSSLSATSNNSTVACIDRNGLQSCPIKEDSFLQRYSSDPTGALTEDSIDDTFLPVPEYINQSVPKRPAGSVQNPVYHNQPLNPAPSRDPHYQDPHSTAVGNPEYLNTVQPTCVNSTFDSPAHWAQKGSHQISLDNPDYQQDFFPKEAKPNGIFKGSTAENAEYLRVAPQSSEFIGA
Experiment: Biochemical EGFR inhibition assay (Caliper mobility shift), EGFR L858R
Conditions: read-out: Enz EGFR_L858R IC50

The cases that follow already have their IC50 on record.
> print(dat)
                                   compound  parameter  test.value
1  C[C@@H](Oc1cc(-c2cnn(C)c2)cc2ncnc(Nc3ccc4ncc(F)cc4c3)c12)C1COC1 [Example 3]       IC50     < 10 nM
2  C[C@@H](Oc1cc(-c2cnn(C)c2)cc2ncnc(Nc3ccc4ncccc4c3F)c12)C(CO)CCl (stereo partly drawn) [Example 113]       IC50     < 10 nM
3  C[C@@H](Oc1cc(N2CC[C@@H](N(C)C)C2)cc2ncnc(Nc3ccc4ncccc4c3F)c12)C1COC1 [Example 79]       IC50     < 10 nM
4  CO[C@@H]1CCN(c2cc3ncnc(Nc4ccc5ncccc5c4F)c3c(O[C@H](C)CN(C)C)n2)C1 [Example 76]       IC50     < 10 nM
5  C[C@H](CN(C)C)Oc1cc(N2CC3(COC3)C2)cc2ncnc(Nc3ccc4ncccc4c3F)c12 [Example 71]       IC50     < 10 nM

Short answer on EGFR L858R (Homo sapiens, UniProt P00533, L858R) for COCC(CO)[C@@H](C)Oc1cc(-c2cnn(C)c2)cc2ncnc(Nc3ccc4ncccc4c3F)c12 (stereo partly drawn) [Example 112] , IC50: < 10 nM

Entry COc1cn(C)nc1-c1cc(O[C@H](C)CN(C)C)c2c(Nc3ccc4ncccc4c3F)ncnc2c1 [Example 45] under EGFR L858R (Homo sapiens, UniProt P00533, L858R) had IC50 of < 10 nM

Reported EGFR L858R (Homo sapiens, UniProt P00533, L858R) IC50 for item [2H]c1c(-c2cc(O[C@H](C)CN(C)C)c3c(Nc4ccc5ncccc5c4F)ncnc3c2)cnn1C [Example 159] was 10.1 to 50 nM

IC50 on EGFR L858R (Homo sapiens, UniProt P00533, L858R) for C[C@H](CN(C)C)Oc1cc(N2CC[C@@H](C(C)(C)O)C2)cc2ncnc(Nc3ccc4ncccc4c3F)c12 [Example 72] is 10.1 to 50 nM

Case COCCn1cc(-c2cc(O[C@H](C)C3COC3)c3c(Nc4ccc5ncccc5c4F)ncnc3c2)cn1 [Example 52] , EGFR L858R (Homo sapiens, UniProt P00533, L858R), IC50 recorded as < 10 nM

Entry C[C@@H](Oc1cc(N2CC[C@@H](C(C)(C)O)C2)cc2ncnc(Nc3ccc4ncccc4c3F)c12)C1COC1 [Example 63] , tested on EGFR L858R (Homo sapiens, UniProt P00533, L858R), has a reported IC50 of < 10 nM

* * *

Biological target: intracellular phosphorylation of EGFR (Tyr1068) in PC-9 cells (Ex19Del) (Homo sapiens, UniProt P00533, DEL746-750)
Sequence (P00533 with tags, fused parts or gaps DEL746-750): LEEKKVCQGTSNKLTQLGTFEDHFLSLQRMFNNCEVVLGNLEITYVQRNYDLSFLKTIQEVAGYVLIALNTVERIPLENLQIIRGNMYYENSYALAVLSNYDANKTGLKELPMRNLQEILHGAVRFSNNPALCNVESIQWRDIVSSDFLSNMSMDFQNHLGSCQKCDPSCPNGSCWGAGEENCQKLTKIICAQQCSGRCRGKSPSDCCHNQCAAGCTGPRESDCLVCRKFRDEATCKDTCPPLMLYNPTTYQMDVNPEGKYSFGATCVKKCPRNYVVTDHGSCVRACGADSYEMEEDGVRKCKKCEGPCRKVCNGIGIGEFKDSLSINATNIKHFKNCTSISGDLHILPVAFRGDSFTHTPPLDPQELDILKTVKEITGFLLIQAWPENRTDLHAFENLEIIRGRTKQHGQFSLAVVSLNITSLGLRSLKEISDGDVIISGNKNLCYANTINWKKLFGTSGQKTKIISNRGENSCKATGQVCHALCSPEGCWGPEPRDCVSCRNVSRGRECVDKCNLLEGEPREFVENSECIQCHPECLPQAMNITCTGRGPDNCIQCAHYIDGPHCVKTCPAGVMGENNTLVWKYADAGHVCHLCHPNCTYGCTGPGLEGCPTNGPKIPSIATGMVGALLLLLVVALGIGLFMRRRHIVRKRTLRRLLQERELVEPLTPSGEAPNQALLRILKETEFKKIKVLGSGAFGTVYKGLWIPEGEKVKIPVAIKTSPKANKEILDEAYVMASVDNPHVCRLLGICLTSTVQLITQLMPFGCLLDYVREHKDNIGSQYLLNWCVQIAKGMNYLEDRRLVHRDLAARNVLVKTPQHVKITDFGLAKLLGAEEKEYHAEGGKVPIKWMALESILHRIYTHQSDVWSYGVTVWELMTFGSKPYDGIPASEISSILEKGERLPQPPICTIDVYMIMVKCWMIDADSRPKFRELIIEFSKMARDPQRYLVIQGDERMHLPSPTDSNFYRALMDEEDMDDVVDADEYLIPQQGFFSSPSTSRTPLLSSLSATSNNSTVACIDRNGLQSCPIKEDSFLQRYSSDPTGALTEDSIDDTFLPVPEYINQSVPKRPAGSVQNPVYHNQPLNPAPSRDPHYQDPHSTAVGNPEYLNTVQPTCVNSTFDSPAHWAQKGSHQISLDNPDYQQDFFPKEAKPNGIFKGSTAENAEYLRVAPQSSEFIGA
Test: PC-9 pEGFR AlphaLISA assay
Settings: 4 hours compound incubation, read-out: Ext pEGFR_PC-9 Ex19Del IC50
PARAMETER: IC50

Below are worked cases with known answers.
> print(dat)
                                    compound  parameter     test.value
 1  COc1nn(C)cc1-c1cc(O[C@H](C)CN(C)C)c2c(Nc3ccc4ncccc4c3F)ncnc2c1       IC50        ≤ 10 nM
 2  CC(Oc1cc(-c2cnn(C)c2)cc2ncnc(Nc3ccc4ncccc4c3F)c12)C1(N(C)C)COC1 (stereo not drawn)       IC50        ≤ 10 nM
 3  C[C@H](CN(C)C)Oc1cc(-c2cnn(C)c2)cc2ncnc(Nc3ccc4ncc(O)cc4c3F)c12       IC50      > 50.1 nM
 4  C[C@@H](Oc1cc(N2CCOC(C)(C)C2)cc2ncnc(Nc3ccc4ncccc4c3F)c12)C1COC1       IC50  10.1 to 50 nM
 5  C[C@H](CN(C)C)Oc1cc(N2CCOC3(CC3)C2)cc2ncnc(Nc3ccc4ncccc4c3F)c12       IC50      > 50.1 nM
 6  C[C@H](CN(C)C)Oc1cc(-c2cnn(C)c2)cc2ncnc(Nc3ccc4nc(O)ccc4c3F)c12       IC50      > 50.1 nM
 7  C[C@H](CN1CCC1)Oc1cc(-c2cnn(C)c2)cc2ncnc(Nc3ccc4ncccc4c3F)c12       IC50        ≤ 10 nM
 8  CN1CCC(Oc2cc(-c3cnn(C)c3)cc3ncnc(Nc4ccc5ncccc5c4F)c23)CC1       IC50        ≤ 10 nM
 9  CCn1cc(-c2cc(OC3CCN(C)CC3)c3c(Nc4ccc5ncccc5c4F)ncnc3c2)c(OC)n1       IC50  10.1 to 50 nM
10  C[C@@H](Oc1cc(-c2cnn(C(C)(C)CO)c2)cc2ncnc(Nc3ccc4ncccc4c3F)c12)C1COC1       IC50        ≤ 10 nM

Lab note: measured IC50 of CC(=O)N1C2CC1CN(c1cc(O[C@H](C)CN(C)C)c3c(Nc4ccc5ncccc5c4F)ncnc3c1)C2 was > 50.1 nM

Input CC(CO)n1cc(-c2cc(O[C@H](C)C3COC3)c3c(Nc4ccc5ncccc5c4F)ncnc3c2)cn1 (mixture of isomers) . Output IC50: ≤ 10 nM

Record summary for C[C@H](CN(C)C)Oc1cc(-c2cnn(C)c2)cc2ncnc(Nc3ccc4ncc(F)cc4c3)c12 : reported IC50 = ≤ 10 nM

Given item CC(=O)N1CC2(C1)CN(c1cc(O[C@H](C)CN(C)C)c3c(Nc4ccc5ncccc5c4F)ncnc3c1)C2 , the value recorded as its IC50 is ≤ 10 nM

For record C[C@H](CN(C)C)Oc1cc(N2CCS(=O)(=O)CC2)cc2ncnc(Nc3ccc4ncccc4c3F)c12 the listed IC50 is > 50.1 nM

Provenance of the data: patent US12662465B2
